RLU/well values for the compounds below.
# procedureSummary: Transfection activity of compound was tested in lewis lung carcinoma (3LL) cells (Level of luciferase gene expression is expressed as mean of relative light units (RLU) per well)
# Format: functional, cell-based
# reportedConditions: Mus musculus
Output spec: single numeric token, no unit.

Past entries and their recorded results:
C=C1CC[C@H](OC(=O)NCC[N+](C)(C)C)C/C1=C/C=C1\CCC[C@]2(C)[C@@H]([C@H](C)/C=C/[C@H](C)C(C)C)CC[C@@H]12.[I-] = 4000
C=C1CC[C@H](OC(=O)NCCN(CCN)CCN)C/C1=C/C=C1\CCC[C@]2(C)[C@@H]([C@H](C)CCCC(C)C)CC[C@@H]12.Cl = 150000

Read the next record carefully.
Query string: Please report the recorded RLU/well for C=C1CC[C@H](OC(=O)NCCN(C)C)C/C1=C/C=C1\CCC[C@]2(C)[C@@H]([C@H](C)CCCC(C)C)CC[C@@H]12.Cl .
Result string: 220000

----------
# System: NIH3T3
# procedureSummary: Transfection activity of compound was tested in murine embryonic fibroblast (NIH3T3) cells (Level of luciferase gene expression is expressed as mean of relative light units (RLU) per well)
# Type: functional, Mus musculus
RLU/well values for the compounds below.
Output spec: single numeric token, no unit.

Past entries and their recorded results:
C=C1CC[C@H](OC(=O)NCCN(CCN)CCN)C/C1=C/C=C1\CCC[C@]2(C)[C@@H]([C@H](C)/C=C/[C@H](C)C(C)C)CC[C@@H]12.Cl = 1.9e+06
C=C1CC[C@H](OC(=O)NCCCCN)C/C1=C/C=C1\CCC[C@]2(C)[C@@H]([C@H](C)CCCC(C)C)CC[C@@H]12.Cl = 7.8e+06
C=C1CC[C@H](OC(=O)NCCN(C)C)C/C1=C/C=C1\CCC[C@]2(C)[C@@H]([C@H](C)CCCC(C)C)CC[C@@H]12.Cl = 120000
C=C1CC[C@H](OC(=O)NCCN(CCN)CCN)C/C1=C/C=C1\CCC[C@]2(C)[C@@H]([C@H](C)CCCC(C)C)CC[C@@H]12.Cl = 690000
C=C1CC[C@H](OC(=O)NCCCCN)C/C1=C/C=C1\CCC[C@]2(C)[C@@H]([C@H](C)/C=C/[C@H](C)C(C)C)CC[C@@H]12.Cl = 2.1e+06

Query string: Please report the recorded RLU/well for C=C1CC[C@H](OC(=O)NCC[N+](C)(C)C)C/C1=C/C=C1\CCC[C@]2(C)[C@@H]([C@H](C)/C=C/[C@H](C)C(C)C)CC[C@@H]12.[I-] .
Result string: 180000

Query string: Quick one: C=C1CC[C@H](OC(=O)NCC[N+](C)(C)C)C/C1=C/C=C1\CCC[C@]2(C)[C@@H]([C@H](C)CCCC(C)C)CC[C@@H]12.[I-]
Result string: 570000

Query string: Quick one: C=C1CC[C@H](OC(=O)NCCN(C)C)C/C1=C/C=C1\CCC[C@]2(C)[C@@H]([C@H](C)/C=C/[C@H](C)C(C)C)CC[C@@H]12.Cl
Result string: 270000
